Value source: paper PMC12700136

Test system: ONC212-resistant MDA-MB-468 cells
test details: Viability assay
Format: cell-based, human
condition summary: Homo sapiens, MDA-MB-468, 72 h, read-out: IC50 (viability)
measured property: IC50 (nM)
Note: unit nM is implicit; provide only the numeric part.

Summary for this compound, N#Cc1cccc(CN2CCC3=C(C2)C(=O)N(Cc2ccc(C(F)(F)F)cc2OCCN)C2=NCCN23)c1 [Compound 9] : IC50 is 27.7

* * *

Tested on: ONC212-resistant MDA-MB-468 cells
test details: Viability assay
Format: cell-based, human
condition summary: read-out: IC50 (viability); ONC212-resistant MDA-MB-468, 72 h
measured property: pIC50
A value of pIC50 is the negative decimal logarithm of a concentration given in moles per litre.

Lab entry: ONC212-resistant MDA-MB-468 cells assay, molecule O=C1C2=C(CCN(Cc3ccccc3)C2)N2CCN=C2N1Cc1ccc(C(F)(F)F)cc1 [ONC212, reference compound] , pIC50 = 6.45

* * *

System: MDA-MB-231 cells
test details: Viability assay
Type: cell-based, human
condition summary: read-out: IC50 (viability); MDA-MB-231, 72 h
measured property: IC50 (nM)
# value in nM; strip the unit string

For this molecule ( O=C1C2=C(CCN(Cc3ccccc3)C2)N2CCN=C2N1Cc1ccc(C(F)(F)F)cc1 [ONC212, reference compound] ), measured IC50 is 50.5

* * *

Test system: MCF-7 cells
test details: Viability assay
Type: cell-based, human
condition summary: read-out: IC50 (viability); MCF-7, 72 h
measured property: pIC50
// pIC50 is dimensionless: -log10 of concentration (M)

Record O=C1C2=C(CCN(Cc3ccccc3)C2)N2CCN=C2N1Cc1ccc(C(F)(F)F)cc1 [ONC212, reference compound] , field pIC50: 7.20
